assay: LC-DAD-MS analysis of ingredients in rat plasma after oral administration of QLY decoction; conditions: 20 minutes after oral administration of QLY decoction
TEST READOUT: detected in plasma of rats after oral administration of QLY

* CN1C[C@@H]2C[C@H](C1)c1cccc(=O)n1C2 [N-methylcytisine] | small amounts
* COC1=CC2C3Cc4ccc(OC)c(O)c4[C@]2(CCN3C)CC1=O (stereo partly shown) [sinomenine, Sinomenine] | detected
* O=C1C=CC[C@@H]2[C@H]3CCCN4CCC[C@@H](CN12)[C@@H]34 [sophocarpine] | small amounts
* O=C1CCCC2C3CCCN4CCCC(CN12)C34 (stereo not shown) [matrine, Matrine] | detected
